The reported measurements were obtained from patent EP3212201B1.

System name: NEK1 (Homo sapiens, UniProt Q96PY6)
Sequence (Q96PY6 whole entry, species assumed): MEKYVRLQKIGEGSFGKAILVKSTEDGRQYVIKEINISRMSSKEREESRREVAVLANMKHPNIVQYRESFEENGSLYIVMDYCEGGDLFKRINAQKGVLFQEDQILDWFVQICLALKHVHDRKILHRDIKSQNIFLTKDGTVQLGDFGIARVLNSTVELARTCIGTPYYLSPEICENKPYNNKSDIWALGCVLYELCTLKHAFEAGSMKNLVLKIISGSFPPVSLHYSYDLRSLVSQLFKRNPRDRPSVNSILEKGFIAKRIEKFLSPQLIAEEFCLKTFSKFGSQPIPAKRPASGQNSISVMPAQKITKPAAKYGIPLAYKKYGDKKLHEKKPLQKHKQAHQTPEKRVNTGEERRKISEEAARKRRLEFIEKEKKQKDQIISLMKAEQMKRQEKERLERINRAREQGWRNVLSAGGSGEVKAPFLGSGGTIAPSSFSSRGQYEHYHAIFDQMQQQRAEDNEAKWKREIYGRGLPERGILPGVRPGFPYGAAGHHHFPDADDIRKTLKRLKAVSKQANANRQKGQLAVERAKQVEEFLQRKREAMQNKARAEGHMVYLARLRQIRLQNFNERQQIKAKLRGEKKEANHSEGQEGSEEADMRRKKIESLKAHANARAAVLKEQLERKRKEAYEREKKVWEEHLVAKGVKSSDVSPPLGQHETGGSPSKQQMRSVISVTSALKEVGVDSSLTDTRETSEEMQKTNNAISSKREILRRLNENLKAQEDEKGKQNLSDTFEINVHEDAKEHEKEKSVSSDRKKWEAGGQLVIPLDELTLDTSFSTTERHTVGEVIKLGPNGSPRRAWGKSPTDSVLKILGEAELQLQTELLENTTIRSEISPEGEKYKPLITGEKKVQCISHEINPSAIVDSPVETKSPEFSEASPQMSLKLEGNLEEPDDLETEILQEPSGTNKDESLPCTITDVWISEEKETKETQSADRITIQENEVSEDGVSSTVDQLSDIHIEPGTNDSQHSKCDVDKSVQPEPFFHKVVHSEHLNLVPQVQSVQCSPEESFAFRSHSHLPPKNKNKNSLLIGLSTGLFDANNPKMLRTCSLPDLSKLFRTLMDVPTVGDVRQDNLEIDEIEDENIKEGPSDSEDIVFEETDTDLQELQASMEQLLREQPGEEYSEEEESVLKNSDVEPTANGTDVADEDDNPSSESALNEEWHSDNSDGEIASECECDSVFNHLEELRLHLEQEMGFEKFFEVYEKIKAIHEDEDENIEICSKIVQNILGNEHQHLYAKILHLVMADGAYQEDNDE
Experiment notes: FRET-based coupled-enzyme protein kinase inhibition assay
Type: biochemical
Condition description: compound at 10 µM, 1% DMSO
Measured parameter: inhibition at 10 µM (%)

The cases that follow already have their inhibition at 10 µM on record.
I'm curious: which inhibition at 10 µM was measured for CC(C)N1CCC(NC(=O)OC[C@H]2O[C@@H](n3cnc4c(N)ncnc43)[C@H](O)[C@@H]2O)CC1 [Compound C19] tested on NEK1 (Homo sapiens, UniProt Q96PY6)?
-2

I'm curious: which inhibition at 10 µM was measured for Nc1ncnc2c1ncn2[C@@H]1O[C@H](COC(=O)N2CCC(Cc3ccc(F)cc3)C2)[C@@H](O)[C@H]1O (stereo partly shown) [Compound C66] tested on NEK1 (Homo sapiens, UniProt Q96PY6)?
-5

a: Nc1ncnc2c1ncn2[C@@H]1O[C@H](COC(=O)N2CCN(CCc3ccccc3)CC2)[C@@H](O)[C@H]1O [Compound C26]
b: Nc1ncnc2c1ncn2[C@@H]1O[C@H](COC(=O)NCCN2CCCC2=O)[C@@H](O)[C@H]1O [Compound C22]
c: N#CCCN1CCN(C(=O)OC[C@H]2O[C@@H](n3cnc4c(N)ncnc43)[C@H](O)[C@@H]2O)CC1 [Compound C70]
d: Nc1ncnc2c1ncn2[C@@H]1O[C@H](COC(=O)N[C@@H]2CCN(Cc3ccccc3)C2)[C@@H](O)[C@H]1O [Compound C10]
e: Nc1ncnc2c1ncn2[C@@H]1O[C@H](COC(=O)NCCCc2nc3ccccc3[nH]2)[C@@H](O)[C@H]1O [Compound C1]
Sort these molecules on inhibition at 10 µM so the largest reading comes first. Would you mind listing the labels in the order requested?
d, c, b, e, a
